TARGET_OF_ASSAY: Ba/F3-EGFR wild-type cell line (Homo sapiens)
Sequence (P00533 whole entry, change not shown): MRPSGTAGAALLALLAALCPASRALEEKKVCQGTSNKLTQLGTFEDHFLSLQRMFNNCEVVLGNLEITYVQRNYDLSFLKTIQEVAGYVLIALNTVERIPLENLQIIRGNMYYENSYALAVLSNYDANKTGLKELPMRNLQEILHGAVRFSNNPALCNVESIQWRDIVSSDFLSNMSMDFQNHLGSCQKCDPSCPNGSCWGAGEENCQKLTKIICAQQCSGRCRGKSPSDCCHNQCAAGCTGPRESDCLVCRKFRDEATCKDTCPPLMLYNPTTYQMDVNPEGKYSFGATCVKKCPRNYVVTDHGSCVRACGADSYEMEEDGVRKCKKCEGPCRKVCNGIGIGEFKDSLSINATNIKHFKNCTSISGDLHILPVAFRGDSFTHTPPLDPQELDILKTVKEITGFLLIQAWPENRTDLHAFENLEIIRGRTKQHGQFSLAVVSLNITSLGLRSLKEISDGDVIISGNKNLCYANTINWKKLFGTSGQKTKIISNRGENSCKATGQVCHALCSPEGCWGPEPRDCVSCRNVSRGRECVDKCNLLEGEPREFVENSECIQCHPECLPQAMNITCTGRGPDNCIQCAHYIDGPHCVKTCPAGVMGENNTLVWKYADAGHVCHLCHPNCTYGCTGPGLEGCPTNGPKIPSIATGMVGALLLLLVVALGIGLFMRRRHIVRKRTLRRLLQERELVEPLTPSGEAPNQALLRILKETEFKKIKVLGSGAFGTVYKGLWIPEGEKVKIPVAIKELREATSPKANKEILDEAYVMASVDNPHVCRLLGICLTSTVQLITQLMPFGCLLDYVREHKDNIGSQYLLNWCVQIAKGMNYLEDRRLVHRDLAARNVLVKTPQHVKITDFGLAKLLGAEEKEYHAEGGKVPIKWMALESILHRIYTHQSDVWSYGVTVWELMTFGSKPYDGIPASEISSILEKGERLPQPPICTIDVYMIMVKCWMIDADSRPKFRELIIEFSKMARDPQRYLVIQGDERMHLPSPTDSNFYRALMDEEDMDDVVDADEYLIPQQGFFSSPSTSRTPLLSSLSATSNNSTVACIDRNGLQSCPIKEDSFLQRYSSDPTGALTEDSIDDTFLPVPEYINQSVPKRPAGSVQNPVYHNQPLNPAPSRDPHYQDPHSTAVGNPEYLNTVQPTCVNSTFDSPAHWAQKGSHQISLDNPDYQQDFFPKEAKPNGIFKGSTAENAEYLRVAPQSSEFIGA
ASSAY_PROCEDURE: Ba/F3-EGFR wild-type cell proliferation assay (CellTiter Glo, 72 hours)
Type: cell-based
STATED_CONDITIONS: Table 2, read-out: EGFR WT IC50
Hi! Could you tag entries with GI50 below 200 nM as true (1), and those at or above as false (0)? Much appreciated.

# SMILES_CODE, LABEL_CLASS
data = [
    ("CCc1cc(Nc2ncc(Br)c(Nc3ccc(-c4cnn(C)c4)cc3P(C)(C)=O)n2)c(OC)cc1N1CCC(N(C)C)CC1", "true (1)"),
]

hey, is GI50 for CCc1cc(Nc2ncc(Br)c(Nc3ccc(-c4ncco4)cc3P(C)(C)=O)n2)c(OC)cc1N1CCC(N2CCN(C)CC2)CC1 lower than 200 nM or not?
true (1)

Strictly below 200 nM in GI50? COc1cc(Nc2ncc(Br)c(Nc3ccc(-c4ccc(C)cn4)cc3P(C)(C)=O)n2)c(C)cc1N1CCOCC1
true (1)

# TODO verify GI50 < 200 nM strictly for this compound: CCc1cnc(-c2ccc(Nc3nc(Nc4cc(CC)c(N5CCC(N6CCN(C)CC6)CC5)cc4OC)ncc3Br)c(P(C)(C)=O)c2)nc1
false (0)

---

Measured IC50 (IGF1R (Homo sapiens, UniProt P08069))
Answer format: numeric, nM implied, no suffix.

# COMPOUND, TARGET_OF_ASSAY, READOUT_UNIT, IC50
measured = [
    ("CCc1cc(Nc2ncc(Br)c(Nc3ccc(-c4ccccc4)cc3P(C)(C)=O)n2)c(OC)cc1N1CCC(N2CCN(C)CC2)CC1 [Compound 1]", "IGF1R (Homo sapiens, UniProt P08069)", "nM", 91.5),
    ("COc1cc(N2CCC(N3CCN(C)CC3)CC2)ccc1Nc1ncc(Cl)c(Nc2ccccc2P(C)(C)=O)n1 [Brigatinib, reference compound]", "IGF1R (Homo sapiens, UniProt P08069)", "nM", 23.4),
]

As a next step, examine the compound that follows.
Please report IC50 with IGF1R (Homo sapiens, UniProt P08069) for item COc1cc(Nc2ncc(Br)c(Nc3ccc(-c4cnccn4)cc3P(C)(C)=O)n2)c(C)cc1N1CCC(N2CCN(C)CC2)CC1 [Compound K-017] .
Sequence (P08069 31-1367, species assumed): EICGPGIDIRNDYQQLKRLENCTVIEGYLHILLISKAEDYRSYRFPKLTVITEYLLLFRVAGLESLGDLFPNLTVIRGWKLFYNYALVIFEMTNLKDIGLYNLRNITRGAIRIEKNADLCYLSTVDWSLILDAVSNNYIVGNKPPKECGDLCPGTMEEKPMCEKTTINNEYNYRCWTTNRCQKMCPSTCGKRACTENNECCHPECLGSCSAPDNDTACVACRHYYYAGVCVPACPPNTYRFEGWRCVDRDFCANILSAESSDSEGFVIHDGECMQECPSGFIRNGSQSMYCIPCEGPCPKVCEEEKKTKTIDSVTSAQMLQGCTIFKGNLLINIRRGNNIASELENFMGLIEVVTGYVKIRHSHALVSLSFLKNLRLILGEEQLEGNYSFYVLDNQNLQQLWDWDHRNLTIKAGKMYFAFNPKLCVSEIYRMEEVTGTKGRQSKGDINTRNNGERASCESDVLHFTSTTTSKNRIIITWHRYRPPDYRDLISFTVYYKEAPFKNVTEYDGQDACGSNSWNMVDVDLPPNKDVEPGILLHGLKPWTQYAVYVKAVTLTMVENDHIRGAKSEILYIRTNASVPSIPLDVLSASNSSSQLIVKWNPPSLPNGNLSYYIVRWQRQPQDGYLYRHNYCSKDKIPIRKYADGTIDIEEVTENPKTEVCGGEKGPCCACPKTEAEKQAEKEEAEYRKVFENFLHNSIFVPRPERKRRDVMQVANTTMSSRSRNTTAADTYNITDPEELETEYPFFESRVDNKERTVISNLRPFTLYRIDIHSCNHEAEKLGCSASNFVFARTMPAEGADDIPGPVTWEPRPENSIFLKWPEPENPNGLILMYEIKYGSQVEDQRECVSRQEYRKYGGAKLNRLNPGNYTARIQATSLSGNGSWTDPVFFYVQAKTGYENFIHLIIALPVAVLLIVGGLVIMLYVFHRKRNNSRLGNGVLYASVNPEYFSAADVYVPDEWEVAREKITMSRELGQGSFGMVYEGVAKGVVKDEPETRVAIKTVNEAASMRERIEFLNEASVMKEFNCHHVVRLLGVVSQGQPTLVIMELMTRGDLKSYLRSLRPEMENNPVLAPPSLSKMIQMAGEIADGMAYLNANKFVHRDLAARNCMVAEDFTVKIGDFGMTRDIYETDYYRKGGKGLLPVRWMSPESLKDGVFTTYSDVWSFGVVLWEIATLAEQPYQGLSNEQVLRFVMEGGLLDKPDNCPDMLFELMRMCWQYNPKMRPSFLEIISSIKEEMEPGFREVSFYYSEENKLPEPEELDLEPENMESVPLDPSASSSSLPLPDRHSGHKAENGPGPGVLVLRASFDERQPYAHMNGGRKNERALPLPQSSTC
39.1

---

TARGET_OF_ASSAY: EGFRΔ19del/T790M/C797S (Homo sapiens, UniProt P00533, T790M/C797S, form not given)
Sequence (P00533 with tags, fused parts or gaps DEL746-750/T790M/C797S, form open): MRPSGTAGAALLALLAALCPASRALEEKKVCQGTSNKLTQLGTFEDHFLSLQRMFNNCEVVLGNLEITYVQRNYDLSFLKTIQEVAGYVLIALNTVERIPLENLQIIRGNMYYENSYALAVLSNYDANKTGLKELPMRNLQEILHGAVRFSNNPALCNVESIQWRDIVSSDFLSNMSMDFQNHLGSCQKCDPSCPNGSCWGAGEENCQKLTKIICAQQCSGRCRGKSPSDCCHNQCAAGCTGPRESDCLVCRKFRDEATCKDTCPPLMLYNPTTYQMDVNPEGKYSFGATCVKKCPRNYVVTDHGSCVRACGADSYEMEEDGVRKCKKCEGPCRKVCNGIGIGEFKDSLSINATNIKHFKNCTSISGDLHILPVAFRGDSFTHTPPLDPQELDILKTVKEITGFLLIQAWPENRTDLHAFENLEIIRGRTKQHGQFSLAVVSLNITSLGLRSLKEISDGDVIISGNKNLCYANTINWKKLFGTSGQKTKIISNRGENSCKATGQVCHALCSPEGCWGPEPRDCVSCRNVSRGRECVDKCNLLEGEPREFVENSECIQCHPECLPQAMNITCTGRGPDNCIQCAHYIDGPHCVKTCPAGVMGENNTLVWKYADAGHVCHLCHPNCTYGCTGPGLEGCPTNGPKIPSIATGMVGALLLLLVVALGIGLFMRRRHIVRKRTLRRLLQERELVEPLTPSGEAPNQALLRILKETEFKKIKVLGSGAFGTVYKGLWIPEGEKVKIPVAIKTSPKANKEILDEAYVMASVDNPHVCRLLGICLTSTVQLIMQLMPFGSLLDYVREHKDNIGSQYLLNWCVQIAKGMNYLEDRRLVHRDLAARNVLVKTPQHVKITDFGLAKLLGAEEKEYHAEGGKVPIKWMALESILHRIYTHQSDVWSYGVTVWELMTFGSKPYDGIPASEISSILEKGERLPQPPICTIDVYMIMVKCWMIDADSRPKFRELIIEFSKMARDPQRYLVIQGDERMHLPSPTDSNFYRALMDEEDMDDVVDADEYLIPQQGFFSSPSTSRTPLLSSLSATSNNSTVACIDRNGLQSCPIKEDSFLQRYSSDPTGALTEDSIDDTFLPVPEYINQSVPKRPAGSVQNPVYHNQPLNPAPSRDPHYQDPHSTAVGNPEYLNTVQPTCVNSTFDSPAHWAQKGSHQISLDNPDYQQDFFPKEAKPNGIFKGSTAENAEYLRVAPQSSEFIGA
ASSAY_PROCEDURE: EGFR Δ19del/T790M/C797S kinase test (mobility variation analysis, Caliper EZ Reader)
STATED_CONDITIONS: kinase enzymatic activity, Table 1
Description: Mobility variation analysis was performed to determine the affinity of the compound for EGFRΔ19del/T790M/C797S, EGFR WT and IGF1R. The enzymatic reaction scheme is as follows: 1. Prepare 1*kinase buffer as follows. 3. […] Prepare 2.5-fold final concentration of kinase solution with 1×Kinase buffer. 4. […] 10. Read conversion rate with Caliper EZ Reader. […]
EXPERIMENTAL_ENDPOINT: IC50 (nM)
# number only, unit nM dropped from output

# SMILES_CODE, READOUT_UNIT, IC50
rows = [
    ("CCc1cc(Nc2ncc(Cl)c(Nc3ccc(-c4cnn5cnccc45)cc3P(C)(C)=O)n2)c(OC)cc1N1CCC(N2CCN(C)CC2)CC1", "nM", 0.5),
    ("CCc1cc(Nc2ncc(Br)c(Nc3ccc(-c4ccccc4)cc3P(C)(C)=O)n2)c(OC)cc1N1CCC(N2CCOCC2)CC1", "nM", 0.8),
]

Identify measured IC50 obtained with EGFRΔ19del/T790M/C797S (Homo sapiens, UniProt P00533, T790M/C797S, form not given) for C#Cc1cnc(-c2ccc(Nc3nc(Nc4cc(C)c(N5CCC(N6CCN(C)CC6)CC5)cc4OC)ncc3Br)c(P(C)(C)=O)c2)cn1 .
0.45

Jot down IC50 (EGFRΔ19del/T790M/C797S (Homo sapiens, UniProt P00533, T790M/C797S, form not given)) of CCc1cc(Nc2ncc(Cl)c(Nc3ccc(-c4ccnc5c4ccn5C)cc3P(C)(C)=O)n2)c(OC)cc1N1CCC(N2CCN(C)CC2)CC1 .
2.4

Print EGFRΔ19del/T790M/C797S (Homo sapiens, UniProt P00533, T790M/C797S, form not given) IC50 for CCc1cc(Nc2ncc(Br)c(Nc3ccc(-c4cncnc4)cc3P(C)(C)=O)n2)c(OC)cc1N1CCC(N2CCN(C)CC2)CC1 .
0.3

Write IC50 of CCc1cc(Nc2ncc(Br)c(Nc3ccc(-c4ccc(C5CC5)nn4)cc3P(C)(C)=O)n2)c(OC)cc1N1CCC(N2CCN(C)CC2)CC1 ; system used: EGFRΔ19del/T790M/C797S (Homo sapiens, UniProt P00533, T790M/C797S, form not given)
0.2

---

TARGET_OF_ASSAY: Ba/F3 cells with EGFR Δ19del/T790M/C797S mutation gene stably overexpressed (Homo sapiens, UniProt P00533, T790M/C797S, cells depend on it, form not given)
ASSAY_PROCEDURE: Ba/F3-Δ19del/T790M/C797S cell proliferation assay (CellTiter Glo, 72 hours)
Type: cell-based
STATED_CONDITIONS: Table 2, read-out: EGFR Δ19del/T790M/C797S IC50
Each entry below carries its reported log10(GI50).
Kindly note that the scale is log10 and the underlying GI50 is in nM.

The following compounds have reported results that may help.
# COMPOUND, OBSERVED_RESULT
measured = [
    ("CCc1cc(Nc2ncc(Br)c(Nc3ccc(-c4cnn(C(F)F)n4)cc3P(C)(C)=O)n2)c(OC)cc1N1CCC(N2CCN(C)CC2)CC1 [Compound K-006]", 1.06),
    ("CCOc1ncc(-c2ccc(Nc3nc(Nc4cc(CC)c(N5CCC(N6CCN(C)CC6)CC5)cc4OC)ncc3Br)c(P(C)(C)=O)c2)cn1 [Compound 76]", 1.57),
    ("CCc1cc(Nc2ncc(Br)c(Nc3ccc(-c4cn(C)nc4C#N)cc3P(C)(C)=O)n2)c(OC)cc1N1CCC(N2CCN(C)CC2)CC1 [Compound 64]", 1.67),
    ("CCc1cc(Nc2ncc(Br)c(Nc3ccc(-c4cnn(C)c4)cc3P(C)(C)=O)n2)c(OC)cc1N1CCC(N2CCOCC2)CC1 [Compound K-042]", 0.63),
]

Give a short answer stating reported log10(GI50) for CCc1cc(Nc2ncc(Br)c(Nc3ccc(-c4cnccn4)cc3P(C)(C)=O)n2)c(OC)cc1N1CCC(N2CCN(C)CC2)CC1 [Compound 78] .
0.86

Identify measured log10(GI50) associated with COc1cc(Nc2ncc(Br)c(Nc3ccc(-c4nccs4)cc3P(C)(C)=O)n2)c(C)cc1N1CCOCC1 [Compound K-024]
1.19

---

System: A431
ASSAY_PROCEDURE: A431 cell proliferation assay (CellTiter Glo, 72 hours)
Format: cell-based
STATED_CONDITIONS: Homo sapiens, A-431, 72 h, cell proliferation, A431, 72 hours, Table 2; read-out: A431 IC50
EXPERIMENTAL_ENDPOINT: IC50 (µM)
Write the number in µM without appending the unit.

Sample answers from the record:
# MOLECULE, EXPERIMENTAL_ENDPOINT, OBSERVED_RESULT
records = [
    ("CCc1cc(Nc2ncc(Br)c(Nc3ccc(-c4cnccn4)cc3P(C)(C)=O)n2)c(OC)cc1N1CCC(N2CCN(C)CC2)CC1 [Compound 78]", "IC50", 1.09),
    ("CCc1cc(Nc2ncc(Cl)c(Nc3ccc(-c4ccccc4)cc3P(C)(C)=O)n2)c(OC)cc1N1CCC(N2CCN(C)CC2)CC1 [Compound 2]", "IC50", 0.812),
    ("CCc1cc(Nc2ncc(Br)c(Nc3ccc(-c4cnc(C)c(C)n4)cc3P(C)(C)=O)n2)c(OC)cc1N1CCC(N2CCN(C)CC2)CC1 [Compound 81]", "IC50", 0.875),
    ("CCc1cc(Nc2ncc(Br)c(Nc3ccc(-c4ccc(C5CC5)nn4)cc3P(C)(C)=O)n2)c(OC)cc1N1CCC(N2CCN(C)CC2)CC1 [Compound 36]", "IC50", 4.64),
]

Proceed to the following item.
Return IC50 for the following molecule: CCc1cc(Nc2ncc(Br)c(Nc3ccc(-c4cccc5c4COC5)cc3P(C)(C)=O)n2)c(OC)cc1N1CCC(N2CCN(C)CC2)CC1 [Compound 11]
1.02

---

The entries below come with measured IC50 values attached.
TARGET_OF_ASSAY: EGFRΔ19del/T790M/C797S (Homo sapiens, UniProt P00533, T790M/C797S, form not given)
ASSAY_PROCEDURE: EGFR Δ19del/T790M/C797S kinase test (mobility variation analysis, Caliper EZ Reader)
STATED_CONDITIONS: kinase enzymatic activity, Table 1
Give the quantity in nM, number only.

Examples with answers:
# SMILES_CODE, EXPERIMENTAL_ENDPOINT, OBSERVED_RESULT
records = [
    ("CCc1cc(Nc2ncc(Br)c(Nc3ccc(-c4cn(C)c5cccnc45)cc3P(C)(C)=O)n2)c(OC)cc1N1CCC(N2CCN(C)CC2)CC1", "IC50", 1.24),
    ("CCc1cc(Nc2ncc(Cl)c(Nc3ccc(-c4cnccn4)cc3P(C)(C)=O)n2)c(OC)cc1N1CCC(N2CCN(C)CC2)CC1", "IC50", 0.4),
    ("C#Cc1cnn(-c2ccc(Nc3nc(Nc4cc(CC)c(N5CCC(N6CCN(C)CC6)CC5)cc4OC)ncc3Br)c(P(C)(C)=O)c2)c1", "IC50", 0.23),
    ("C#Cc1cncc(-c2ccc(Nc3nc(Nc4cc(CC)c(N5CCC(N6CCN(C)CC6)CC5)cc4OC)ncc3Br)c(P(C)(C)=O)c2)n1", "IC50", 0.3),
    ("CCc1cc(Nc2ncc(Cl)c(Nc3ccc(-c4cnn5c4OCCC5)cc3P(C)(C)=O)n2)c(OC)cc1N1CCC(N2CCN(C)CC2)CC1", "IC50", 0.5),
]

Field: next molecule
// fetch IC50 given entry CCc1cc(Nc2ncc(Br)c(Nc3ccc(-c4ccc(C)nc4)cc3P(C)(C)=O)n2)c(OC)cc1N1CCC(N2CCN(C)CC2)CC1
0.5
